Reference for the values: ChEMBL document CHEMBL1158974

Consider the following molecules and their measured inhibition at 30 µg/mL readings.
- Test system: Leishmania donovani
- test.details: Antileishmanial activity against Leishmania donovani HOM/IN/80/Dd8 amastigotes infected in Sigmodon hispidus peritoneal macrophages assessed as reduction in infected macrophages at 30 ug/ml
- Assay type: functional
- study.conditions: HOM/IN/80/Dd8, in Sigmodon hispidus
measured.parameter: inhibition at 30 µg/mL

1. COC(=O)C1=CO[C@@H](O[C@@H]2O[C@H](CO)[C@@H](O)[C@H](O)[C@H]2O)[C@@H]2[C@@H](CO)[C@@H](OC(=O)/C=C/c3ccc(O)c(O)c3)[C@@H](O)[C@H]12 [ARBORTRISTOSIDE B] : 28.1%
2. COC(=O)C1=CO[C@@H](O[C@@H]2O[C@H](CO)[C@@H](O)[C@H](O)[C@H]2O)[C@@H]2[C@@H](C)[C@@H](O)[C@@H](O)[C@H]12 : 42.2%
3. COC(=O)C1=CO[C@@H](O[C@@H]2O[C@H](CO)[C@@H](O)[C@H](O)[C@H]2O)[C@@H]2[C@@H](C)[C@@H](OC(=O)/C=C/c3ccc(O)cc3)[C@@H](O)[C@H]12 [ARBORTRISTOSIDE C] : 39.9%
4. COC(=O)C1=CO[C@@H](O[C@@H]2O[C@H](CO)[C@@H](O)[C@H](O)[C@H]2O)[C@@H]2[C@@H](C)[C@@H](OC(=O)/C=C/c3ccc(OC)cc3)[C@@H](O)[C@H]12 [ARBORTRISTOSIDE A] : 7.13%

* * *

- System: Leishmania donovani
- test.details: Antileishmanial activity against Leishmania donovani HOM/IN/80/Dd8 amastigotes infected in Mesocricetus auratus assessed as survival days at 10 mg/kg, ip administered daily for 5 days
- Assay type: functional
- study.conditions: route intraperitoneal
measured.parameter: Survival (days)

1) COC(=O)C1=CO[C@@H](O[C@@H]2O[C@H](CO)[C@@H](O)[C@H](O)[C@H]2O)[C@@H]2[C@@H](CO)[C@@H](OC(=O)/C=C/c3ccc(O)c(O)c3)[C@@H](O)[C@H]12 [ARBORTRISTOSIDE B] : 59
2) COC(=O)C1=CO[C@@H](O[C@@H]2O[C@H](CO)[C@@H](O)[C@H](O)[C@H]2O)[C@@H]2[C@@H](C)[C@@H](OC(=O)/C=C/c3ccc(OC)cc3)[C@@H](O)[C@H]12 [ARBORTRISTOSIDE A] : 38
